Cited source for all entries: ChEMBL document CHEMBL1137707

- System: Hepatocyte
- experiment: Hepatic clearance in human hepatocytes in absence of fetal calf serum
- condition-details: hepatocytes
Short version: logCL at least 0.08 is fulfilled, less is not fulfilled.

Exercise: // inclusive: logCL at least 0.08? input: CN1C(=O)CN=C(c2ccccc2)c2cc(Cl)ccc21 [DIAZEPAM]
Solution: not fulfilled

Exercise: // inclusive: logCL at least 0.08? input: C[C@]12C=CC(=O)C=C1CC[C@@H]1[C@@H]2[C@@H](O)C[C@@]2(C)[C@H]1CC[C@]2(O)C(=O)CO [PREDNISOLONE]
Solution: fulfilled

Exercise: // inclusive: logCL at least 0.08? input: Cc1cn([C@H]2C[C@H](N=[N+]=[N-])[C@@H](CO)O2)c(=O)[nH]c1=O [ZIDOVUDINE]
Solution: fulfilled

* * *

- System: Hepatocyte
- experiment: Hepatic clearance in human hepatocytes in absence of fetal calf serum
- condition-details: hepatocytes
Some compounds, each annotated with its measured logCL.
Note: the reply should be a number with no unit written.

Recorded results for 6 compounds are shown here.
| compound | logCL |
| --- | --- |
| C[C@H]1C[C@@H]2[C@H]([C@@H](O)C[C@@]3(C)[C@H]2CC[C@]3(O)C(=O)CO)[C@@]2(C)C=CC(=O)C=C12 [METHYLPREDNISOLONE] | 0.8751 |
| CC(C(=O)O)c1cccc(Oc2ccccc2)c1 (stereo not given) [FENOPROFEN] | 0.2279 |
| COc1ccc2c(c1)c(CC(=O)O)c(C)n2C(=O)c1ccc(Cl)cc1 [INDOMETHACIN] | 0.3502 |
| CCCCNC(=O)NS(=O)(=O)c1ccc(C)cc1 [TOLBUTAMIDE] | -0.5229 |
| O=C(O)c1cc(-c2ccc(F)cc2F)ccc1O [DIFLUNISAL] | -0.7447 |
| CC(C)(C)NC[C@H](O)COc1nsnc1N1CCOCC1 [TIMOLOL] | 0.9624 |

// logCL lookup, compound = CC(C)c1nc(CN(C)C(=O)N[C@H](C(=O)N[C@@H](Cc2ccccc2)C[C@H](O)[C@H](Cc2ccccc2)NC(=O)OCc2cncs2)C(C)C)cs1 [RITONAVIR] , result: 0.0792

// logCL lookup, compound = COc1ccccc1OCCNCC(O)COc1cccc2[nH]c3ccccc3c12 (stereo not given) [CARVEDILOL] , result: 0.9395

// logCL lookup, compound = CN1C(C(=O)Nc2ccccn2)=C(O)c2sccc2S1(=O)=O [TENOXICAM] , result: -1.1367

// logCL lookup, compound = Cn1c(=O)c2[nH]cnc2n(C)c1=O.O [THEOPHYLLINE] , result: -0.1871
